Data provenance is patent US7657380.

Target: T1, human CD30 (commercial, conjugated to digoxigenin) (human, UniProt P28908 19-379, limits assumed, conjugated to digoxigenin (DIG))
T1 sequence (looked up): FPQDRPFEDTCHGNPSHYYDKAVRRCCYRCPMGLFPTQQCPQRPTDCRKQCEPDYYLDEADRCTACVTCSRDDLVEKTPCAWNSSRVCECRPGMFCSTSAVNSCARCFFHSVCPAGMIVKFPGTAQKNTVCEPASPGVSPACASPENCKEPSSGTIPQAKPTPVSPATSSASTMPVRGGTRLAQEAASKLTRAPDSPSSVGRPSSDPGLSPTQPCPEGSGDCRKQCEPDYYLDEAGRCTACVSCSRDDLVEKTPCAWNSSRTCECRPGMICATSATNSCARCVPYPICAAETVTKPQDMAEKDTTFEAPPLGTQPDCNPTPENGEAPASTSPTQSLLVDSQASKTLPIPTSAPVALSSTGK
Assay: AlphaScreen competition
property: Fold IC50 vs H3/L3 (fold)
Dear colleague, please return just the value in fold, with no unit written.

Tell me the measured Fold IC50 vs H3/L3 of AC10 H3/L3.58 (antibody, IgG1, name in Kabat numbering, V domains shown) VH: QIQLVQSGPEVKKPGASVKVSCKASGYTFTDYYITWVRQAPGQGLEWMGWIYPGSGNTKYNEKFQGRFVFSVDTSASTAYLQISSLKAEDTAVYFCANYGNYWFAYWGQGTLVTVSS VL: DIVLTQSPDSLAVSLGERATINCKASQSVDFDGDSYMNWYQQKPGQPPKVLIYAASNLESGIPARFSGSGSGTDFTLTINSLEAEDAATYYCQQSNSDPWTFGGGTKVEIK , please. 0.49

Tell me the measured Fold IC50 vs H3/L3 of AC10 H3/L3.60 (antibody, IgG1, name in Kabat numbering, V domains shown) VH: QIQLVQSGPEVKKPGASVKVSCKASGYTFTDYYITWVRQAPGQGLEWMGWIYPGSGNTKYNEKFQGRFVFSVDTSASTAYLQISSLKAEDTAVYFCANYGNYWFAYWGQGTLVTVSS VL: DIVLTQSPDSLAVSLGERATINCKASQSVDFDGDSYMNWYQQKPGQPPKVLIYAASNLESGIPARFSGSGSGTDFTLTINSLEAEDAATYYCQQSNEFPWTFGGGTKVEIK , please. 0.02

Tell me the measured Fold IC50 vs H3/L3 of AC10 H3/L3.27 (antibody, IgG1, name in Kabat numbering, V domains shown) VH: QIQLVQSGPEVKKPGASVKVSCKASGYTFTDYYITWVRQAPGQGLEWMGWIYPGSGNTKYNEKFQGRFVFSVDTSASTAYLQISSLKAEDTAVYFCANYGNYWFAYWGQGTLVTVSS VL: DIVLTQSPDSLAVSLGERATINCKASQSVDFDGDSYMAWYQQKPGQPPKVLIYAASNLESGIPARFSGSGSGTDFTLTINSLEAEDAATYYCQQSNEDPWTFGGGTKVEIK , please. 0.38

Tell me the measured Fold IC50 vs H3/L3 of AC10 H3/L3.22 (antibody, IgG1, name in Kabat numbering, V domains shown) VH: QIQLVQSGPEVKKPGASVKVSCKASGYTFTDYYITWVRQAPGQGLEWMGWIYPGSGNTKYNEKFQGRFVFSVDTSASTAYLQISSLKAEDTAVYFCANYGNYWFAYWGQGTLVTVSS VL: DIVLTQSPDSLAVSLGERATINCKASQSVDFDGDTYMNWYQQKPGQPPKVLIYAASNLESGIPARFSGSGSGTDFTLTINSLEAEDAATYYCQQSNEDPWTFGGGTKVEIK , please. 0.46

Tell me the measured Fold IC50 vs H3/L3 of AC10 H3/L3.41 (antibody, IgG1, name in Kabat numbering, V domains shown) VH: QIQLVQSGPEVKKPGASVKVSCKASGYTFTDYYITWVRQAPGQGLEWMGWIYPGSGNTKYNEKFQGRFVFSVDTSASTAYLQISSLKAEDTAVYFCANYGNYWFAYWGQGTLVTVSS VL: DIVLTQSPDSLAVSLGERATINCKASQSVDFDGDSYMNWYQQKPGQPPKVLIYAASNLETGIPARFSGSGSGTDFTLTINSLEAEDAATYYCQQSNEDPWTFGGGTKVEIK , please. 1.8

Tell me the measured Fold IC50 vs H3/L3 of AC10 H3/L3.53 (antibody, IgG1, name in Kabat numbering, V domains shown) VH: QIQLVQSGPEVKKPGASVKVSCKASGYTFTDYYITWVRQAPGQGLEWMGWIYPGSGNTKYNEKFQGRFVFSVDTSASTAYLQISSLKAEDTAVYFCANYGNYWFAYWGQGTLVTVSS VL: DIVLTQSPDSLAVSLGERATINCKASQSVDFDGDSYMNWYQQKPGQPPKVLIYAASNLESGIPARFSGSGSGTDFTLTINSLEAEDAATYYCQQSSEDPWTFGGGTKVEIK , please. 0.48

Tell me the measured Fold IC50 vs H3/L3 of AC10 H3/L3.63 (antibody, IgG1, name in Kabat numbering, V domains shown) VH: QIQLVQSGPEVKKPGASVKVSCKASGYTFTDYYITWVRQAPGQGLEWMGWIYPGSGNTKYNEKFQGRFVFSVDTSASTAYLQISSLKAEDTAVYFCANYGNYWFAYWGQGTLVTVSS VL: DIVLTQSPDSLAVSLGERATINCKASQSVDFDGDSYMNWYQQKPGQPPKVLIYAASNLESGIPARFSGSGSGTDFTLTINSLEAEDAATYYCQQSNESPWTFGGGTKVEIK , please. 0.57

Tell me the measured Fold IC50 vs H3/L3 of AC10 H3/L3.5 (antibody, IgG1, name in Kabat numbering, V domains shown) VH: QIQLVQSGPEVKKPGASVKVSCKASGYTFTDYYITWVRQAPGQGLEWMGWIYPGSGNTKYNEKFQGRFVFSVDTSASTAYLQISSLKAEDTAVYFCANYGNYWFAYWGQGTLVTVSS VL: DIQLTQSPDSLAVSLGERATINCKASQSVDFDGDSYMNWYQQKPGQPPKVLIYAASNLESGIPARFSGSGSGTDFTLTINSLEAEDAATYYCQQSNEDPWTFGGGTKVEIK , please. 1.32

Tell me the measured Fold IC50 vs H3/L3 of AC10 H3/L3.16 (antibody, IgG1, name in Kabat numbering, V domains shown) VH: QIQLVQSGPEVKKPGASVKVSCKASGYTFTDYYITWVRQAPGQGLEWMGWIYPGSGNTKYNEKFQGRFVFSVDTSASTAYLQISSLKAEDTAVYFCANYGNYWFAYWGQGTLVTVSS VL: DIVLTQSPDSLAVSLGERATINCKASQSVDFNGDSYMNWYQQKPGQPPKVLIYAASNLESGIPARFSGSGSGTDFTLTINSLEAEDAATYYCQQSNEDPWTFGGGTKVEIK , please. 1.61

Tell me the measured Fold IC50 vs H3/L3 of AC10 H3/L3.13 (antibody, IgG1, name in Kabat numbering, V domains shown) VH: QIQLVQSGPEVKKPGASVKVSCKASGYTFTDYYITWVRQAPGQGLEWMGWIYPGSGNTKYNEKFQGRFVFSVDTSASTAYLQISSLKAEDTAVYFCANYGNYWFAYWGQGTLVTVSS VL: DIVLTQSPDSLAVSLGERATINCKASQSVDDDGDSYMNWYQQKPGQPPKVLIYAASNLESGIPARFSGSGSGTDFTLTINSLEAEDAATYYCQQSNEDPWTFGGGTKVEIK , please. 0.32
